Test system: PARP
Test: PARP cleavage, Western blot, Jurkat T cells
Type: cell-based, human
Details: 50 μM, 8 hours
Excerpt: A library of β-lactam analogs was screened for their ability to induce apoptosis. […] This is followed by preparation of cell lysates and measurement of apoptosis-specific caspase-3 activation (by cell-free caspase-3 activity assay) and PARP cleavage (by Western blotting).
Assay Endpoint: decrease of PARP cleavage relative to lactam 1

Query: Returns the measured decrease of PARP cleavage relative to lactam 1 for the input compound. Input: COC1C(=O)N(SCc2ccccc2)C1c1ccccc1Cl (racemic)
Response: ~70%

Query: Repeat with COC1C(=O)N(SC)C1c1ccc(Cl)cc1 (racemic)
Response: ~20%

====

molecules and their reported sub-G1 apoptotic population
test system: Jurkat T cells; assay: Flow cytometry cell cycle distribution and sub-G1 population, Jurkat T cells; format: cell-based, human; details: 50 μM, 5 hours
Only the number, expressed in %, is required.

Known results for molecules:
{"Molecule": "CCCCSN1C(=O)C(OC)C1c1ccccc1Cl (racemic)", "sub-G1 apoptotic population / %": 2}
{"Molecule": "COC1C(=O)N(SC)C1c1ccccc1Cl (racemic)", "sub-G1 apoptotic population / %": 14}

// next entry
Query: Returns the measured sub-G1 apoptotic population for the input molecule. Input: CCSN1C(=O)C(OC)C1c1ccccc1Cl (racemic)
Response: 10

====

system: Jurkat T cells; format: cell-based, human; conditions: 50 μM, 24 h
compounds and their reported non-viable cell population / cell death (trypan blue)
Only the number, expressed in %, is required.

{"Compound": "COC1C(=O)N(SC)C1c1ccccc1I (racemic) [lactam 46]", "Target Under Test": "Jurkat T cells", "Experimental Value": 60}

Query: Returns the measured non-viable cell population / cell death (trypan blue) for the input compound. Input: COC1C(=O)N(SC)C1c1ccccc1Br (racemic) [lactam 23]
Response: 55

====

system: PARP; experiment: PARP cleavage, Western blot, Jurkat T cells; type: cell-based, human; conditions: 50 μM, 8 hours
molecules and their reported decrease of PARP cleavage relative to lactam 1

{"Molecule": "CCCCSN1C(=O)C(OC)C1c1ccccc1Cl (racemic)", "Experimental Value": "~65%"}

Query: Returns the measured decrease of PARP cleavage relative to lactam 1 for the input molecule. Input: O=C1CC2(CCCCC2)CN1
Response: ~20%

Query: Repeat with CCSN1C(=O)C(OC)C1c1ccccc1Cl (racemic)
Response: ~50%
